tested on: MS2 coat protein; experiment: apparent KD of MS2 coat protein; higher = weaker reporter binding; conditions: Eterna round: R107; input ligand: theophylline 2 mM
Listing of entries alongside the reported apparent KD of MS2 coat protein.
Lab book: enter the figure in nM, no units written.

Use the examples below as a reference point.
>>> recorded_number("ACAUGAGGAUCACCCAUGUAUGAUGUUCCUCGAGGACCGGUACGGCCGCCACUCGAACGAGUGGCGCGCGAGCGCGCGCUCGCGC [aVa]")
17.3
>>> recorded_number("UGACAUUGCUCAGAUACCAGACACGAGGAUCACCCGUGUGCCAACAAGUACAAAAUAAAUGUCCCUUGGCAGCUGAGCAAUGUCU [TheoBX 24 #MS2Left #AlternativeMS2 #Theo22]")
26.1

## Task Recall the reported apparent KD of MS2 coat protein of UAUCGUCAGACGGCCGCCACUAGAACAUGAGGAUCACCCAUGUACCCGGUCCAUUCCUCAUUAACUAGGACCGGGUCUGACGAAU [(Trp1)-(Ms2)-(T)'-(M)'-(Trp2)_Design13] when tested on MS2 coat protein.
## Result 131

----------
test system: MS2 coat protein; test: apparent KD of MS2 coat protein; higher = weaker reporter binding; details: Eterna round: R107; input ligand: theophylline 20 uM
Listing of entries alongside the reported apparent KD of MS2 coat protein.
Lab book: enter the figure in nM, no units written.

Use the examples below as a reference point.
>>> recorded_number("AUAUUUAAUGGAAGGAGCGCGGAUAAUAAAGUGGGUAAACAUGAGGAUCACCCAUGUAAACCGCAGGUAGGUCGCCGAAAUAUAU [AstrosEXyARgB#8]")
49.4
>>> recorded_number("GAGCUGAUGUAGGGUGGAUAUCCUUGAGAUACCAGUACAGAAAUGUACCCUUGGCAGCUCUUCCUUACAUGAGGAUCACCCAUGU [Ex Theophylline A 25]")
23.5
>>> recorded_number("CCUGCGUUUCUUCUUUCGCAGGAGGAUGAUACCAGUAGGGAAACCUACCCUUGGCAGCAUGGGACAUGAGGAUCACCCAUGUGGA [SSThA NP+V+V2 #1]")
522
>>> recorded_number("GGUUACUCUACGGCCGCCACUGAUUAUUUAUAAUCCUGUACAUAAACAUGAGGAUCACCCAUGUACAGGACCGGGUAGUGUAACC [Tryptophan B 11]")
37.7

Now examine the next entry.
## Task Provide only the value of recorded apparent KD of MS2 coat protein for UGUAACAUGAGGAUCACCCAUGUGCACGAUACCAGCUUAUUGGUAGGCCCUUGGCAGCGUAUUCGGAAGAUGUAUAAUAUAUAUC [#26 SameState-TheophyllineA]
## Result 17.4

----------
system: MS2 coat protein; assay: apparent KD of MS2 coat protein, switch OFF state (with FMN for OFF switches, without FMN for ON switches); designed switch direction (-1 OFF switch, 1 ON switch): -1; higher = weaker reporter binding; conditions: FMN input: 0 or 200 uM; Eterna round: R93 (includes R88 designs)
Readout label: apparent KD of MS2 coat protein

Use the examples below as a reference point.
>>> result("AACAGUACAGGAUAUACAUGAGGAUCACCCAUGUAAAAGGGAAGUGGCGUACCACAAAGUAGAAGGGUACUGGA [Moding Maslow revisited (73) 6]")
"121 nM"
>>> result("AAAGGGUCAGGAUAUCGUUUAAUAAUAAAAUAAAUAAAGAACGAGAAGGGACAUGAGGAUCACCCAUGUAUAAA [May 76]")
"89.8 nM"
>>> result("AAUACACAUGAGGAUCACCCAUGUAAGGAUAUCGAAAAAAAAAUAAACAAAAAACAAACGAGAAGGUACAAAAA [Exclusion 1 design 3]")
"33.6 nM"
>>> result("AGUCGGCGAGGAUAUACAUGAGGAUCACCCAUGUGAGAGCUAAAAGUGAGUCAGAAAAGUAGAAGGCGCUGACA [JL Lego Mod 6]")
"94.1 nM"
>>> result("AAGAAACAUGAGGAUCACCCAUGUGAGGAUAUGGAAAAGAAAAGAAAAGAAAGAAGAACCAGAAGGCACAAAGG [Neferkare (VI) Pepiseneb]")
"50.8 nM"

## Task Provide only the value of recorded apparent KD of MS2 coat protein for AAAAAAGGAGGAUAUACGAACAUGUCGAAAGACGUGAAGGGACAUGAGGAUCACCCAUGUAGAAGGCUUAAAAA [Mat - Exclusion 2 - JL mod - D69]
## Result 23.9 nM

## Task Provide only the value of recorded apparent KD of MS2 coat protein for AAAAAUUGAGGAUAUACGUACAUGUCAAAAGACGUGAAGGGACAUGAGGAUCACCCAUGUAGAAGGCGAAAGAA [JL Neck Breaker 13]
## Result 16 nM

## Task Provide only the value of recorded apparent KD of MS2 coat protein for AGAAAACAUGAGGAUCACCCAUGUGAGGAUAUGCGAAUAAAGAAACAAAUAAAAGAAAGCAGAAGGCACAACAA [Ex 1 Tesla 4]
## Result 36 nM

## Task Provide only the value of recorded apparent KD of MS2 coat protein for CUCUUGUGAGGAUAUGUAAGAAAAGAAGAGAAAGAAAAGAAACAGAAGGCACAUGAGGAUCACCCAUGUAAGAA [EteRNA is fun!]
## Result 146 nM

## Task Provide only the value of recorded apparent KD of MS2 coat protein for AAAAAGUAAGGAUAUACAAAAGAAAACACAAAAAAAAAAAAACAUGAGGAUCACCCAUGUAGAAGGUACAAAAA [Ex2 Malc#1]
## Result 19.3 nM

----------
Listing of entries alongside the reported apparent KD of MS2 coat protein.
tested on: MS2 coat protein; test: apparent KD of MS2 coat protein; designed switch direction (-1 OFF switch, 1 ON switch): -1; higher = weaker reporter binding; conditions: Eterna round: R95; input ligand: microRNA oligo, concentration not stated
Lab book: enter the figure in nM, no units written.

Use the examples below as a reference point.
>>> recorded_number("AAUAACAGAGGAUAUACUGUUUUAUGUGUUUAUUGUUUUGAACAUGAGGAUCACCCAUGUAGAAGGCUGAAUGA [JMF 66] (puzzle: Exclusion 2)")
23
>>> recorded_number("UAUUUGCAAGGAUAUGAUUUAAGUAACAUGAGGAUCACCCAUGUUUUUCCGUUGUUAUGUUCAGAAGGUGCGUGAU [JR_E5_Sub020] (puzzle: Exclusion 5)")
50.9
>>> recorded_number("AGUACUAACACGCGUGUGUUAGUACAAUAAGCUUGUGAAACAUGAGGAUCACCCAUGUCCUCAUAAGCUCGUCUUAU [salish99_TOv2_r3_076] (puzzle: Sensor v3, turn-off variant 2)")
608
>>> recorded_number("AAGUACCGUCACGAUAGUGAUGGUACAACAAGCGAAUGUACAUGAGGAUCACCCAUGUCCUCUUUUGCUCGUCUUAU [Sensor 3 - 97] (puzzle: Sensor v3, turn-off variant 2)")
31.9

## Task Recall the reported apparent KD of MS2 coat protein of UAUUAGCAAGCCAGAUCCCACAUGAGGAUCACCCAUGUGCUCGUCUUAUAAGGUACUGUGACGAAAGUCACGGUACC [Sensor 3, v1 - 93] (puzzle: Sensor v3, turn-off variant 1) when tested on MS2 coat protein.
## Result 1120

----------
test system: MS2 coat protein; assay: apparent KD of MS2 coat protein; designed switch direction (-1 OFF switch, 1 ON switch): -1; higher = weaker reporter binding; details: input ligand: microRNA oligo, concentration not stated
Readout label: apparent KD of MS2 coat protein

Use the examples below as a reference point.
>>> result("UUAUUAUAUGUAGGAUAUGCGUAUUAUUAUUAUGCAGAAGGACAUGAGGAUCACCCAUGUAUAUUAUUAUUAUAUAUUAUAUAU [Title] (Eterna round: R96, puzzle: Exclusion NG 1)")
"23.5 nM"
>>> result("CGAUAUAACGUAGGAUAUCUGAGAAAUAGAUGAAGAGAAGGACGACAUGAGGAUCACCCAUGUGAUCUAUCAAUAUUAUACAUG [Prohibition 96 - Jieux - Exclusion NG 1] (Eterna round: R96, puzzle: Exclusion NG 1)")
"694 nM"

## Task Provide only the value of recorded apparent KD of MS2 coat protein for CGAUGCUCGUGUCCACAUGAGGAUCACCCAUGUCGAGUUAGCGAGGAUAUCGGUAGCACAUAGCACGAGAAGGCGCGAACCUGA [Ex NG3 #28] (Eterna round: R96, puzzle: Exclusion NG 3)
## Result 15.9 nM

## Task Provide only the value of recorded apparent KD of MS2 coat protein for UUAAUUAAUUAUAUAAGAUCACAUGAGGAUCACCCAUGUAUAUAGGAUAUCAGCUCGUGUAGAGCUGAGAAGGAUAUACAAUAU [ExNG3/3-B3] (Eterna round: R96, puzzle: Exclusion NG 3)
## Result 210 nM

## Task Provide only the value of recorded apparent KD of MS2 coat protein for ACAUGAGGAUCACCCAUGUCUGGCUGGUCUGCUCCGGCUGUUGAGGAUAUAGUCCGGUGUUCGCGCUAGAAGGCGAGGGCUGGA [Aenatbe mod 42] (Eterna round: R96, puzzle: Exclusion NG 3)
## Result 21.9 nM

## Task Provide only the value of recorded apparent KD of MS2 coat protein for ACAUGAGGAUCACCCAUGUCGGGCUGGUCCGCUCCGGCUGUUGAGGAUAUAGCCCGGUAUCCGCGCUAGAAGGUGAGGGCCGGC [Aenatbe mod 29] (Eterna round: R96, puzzle: Exclusion NG 3)
## Result 29.5 nM

## Task Provide only the value of recorded apparent KD of MS2 coat protein for ACAAAGGAUACAGGAUAUCGCGUACAAGUGCAGCGAGAAGGGUAUUCUAUGCGCUAUCCGACAUGAGGAUCACCCAUGUGGUCC [Eternabot solution 47] (Eterna round: R96, puzzle: Exclusion NG 1)
## Result 851 nM

## Task Provide only the value of recorded apparent KD of MS2 coat protein for CAAUAUUAUCGAGGAUAUCCUAUUGUAUUUCUGGGAGAAGGCGGACUCAACAUGAGGAUCACCCAUGUAAGACGGGUACUAGAU [Ex NG1 #20] (Eterna round: R96, puzzle: Exclusion NG 1)
## Result 81 nM

## Task Provide only the value of recorded apparent KD of MS2 coat protein for CUAGCGAUUGUAGGAUAUCGGACUGUUUCAGUCUGAGAAGGACAUGAGGAUCACCCAUGUGGAGGAUCGUGAGAUCCACGCUAG [JL ENG1 3.81] (Eterna round: R96, puzzle: Exclusion NG 1)
## Result 24.6 nM
